Data credit: ChEMBL document CHEMBL1201861

- Test system: GCIY
- Method: cells
- Type: functional, cell-based, Homo sapiens
- Experimental Setup: Homo sapiens, GCIY
- Description: SANGER: Inhibition of human GCIY cell growth in a cell viability assay.
Known IC50 of a selection of molecules
Quantity Measured: IC50 (nM)

Molecule: COc1ccc(N(C(=O)Oc2c(C)cccc2C)c2ccnc(Nc3ccc(N4CCN(C)CC4)cc3)n2)c(OC)c1
Study Target: GCIY
Unit Spec: nM
Value Qualifier: =
Val: 1230

Molecule: NC(=O)Nc1cc(-c2cccc(F)c2)sc1C(=O)N[C@H]1CCCNC1 [AZD-7762]
Study Target: GCIY
Unit Spec: nM
Value Qualifier: =
Val: 1390

Molecule: NC(=O)c1ccc(N(C(N)=O)c2c(F)cccc2F)nc1-c1ccc(F)cc1F [VX-702]
Study Target: GCIY
Unit Spec: nM
Value Qualifier: >
Val: 2000

Molecule: Nc1ccccc1NC(=O)c1ccc(CNC(=O)OCc2cccnc2)cc1 [ENTINOSTAT]
Study Target: GCIY
Unit Spec: nM
Value Qualifier: >
Val: 5000

Molecule: Cc1ccc(NC(=O)c2ccc(CN3CCN(C)CC3)cc2)cc1Nc1nccc(-c2cccnc2)n1 [IMATINIB]
Study Target: GCIY
Unit Spec: nM
Value Qualifier: >
Val: 2000

Molecule: NC(=O)c1cccc(-c2cc(Nc3ccc(OC(F)(F)F)cc3)ncn2)c1
Study Target: GCIY
Unit Spec: nM
Value Qualifier: >
Val: 1280

Molecule: COc1cc(N2CCC(N3CCN(C)CC3)CC2)ccc1Nc1ncc(Cl)c(Nc2ccccc2S(=O)(=O)C(C)C)n1 [TAE-684]
Study Target: GCIY
Unit Spec: nM
Value Qualifier: =
Val: 955

Molecule: NC1(c2ccc(-c3nc4ccn5c(=O)[nH]nc5c4cc3-c3ccccc3)cc2)CCC1 [MK-2206]
Study Target: GCIY
Unit Spec: nM
Value Qualifier: >
Val: 4000

Molecule: OC[C@H](Cc1ccccc1)Nc1nc(Oc2ccc3c(c2)CCC3)nc2c1ncn2Cc1ccc(-c2ccccc2)cc1
Study Target: GCIY
Unit Spec: nM
Value Qualifier: >
Val: 10200

Molecule: C/C(=C\c1csc(C)n1)[C@@H]1C[C@@H]2O[C@]2(C)CCC[C@H](C)[C@H](O)[C@@H](C)C(=O)C(C)(C)[C@@H](O)CC(=O)O1 [PATUPILONE]
Study Target: GCIY;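 further: growth inhibition of the human GCIY cell line, read out by a cell viability assay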
Unit Spec: nM
Value Qualifier: =
Val: 6.59
